Numbers sourced from patent US8263591B2.

Test readout: melting point

Answered cases to consult:
>>> reported_measurement("O=C1CC2CCC(C1)N2C(=O)c1ccc2nonc2c1 [Example 2]")
"164 to 166 °C"
>>> reported_measurement("O=C(c1ccc2nonc2c1)N1CC2CCC1CC2 [Example 9]")
"138 to 139 °C"
>>> reported_measurement("O=C(c1ccc2nonc2c1)N1C2CCC1CC(F)(F)C2 [Example 3]")
"165 to 166 °C"
>>> reported_measurement("O=C(c1ccc2nonc2c1)N1CC2CCC1C2 (centres unmarked) [Example 7]")
"92 to 93 °C"

Shift focus to the following entry.
Exercise: Let me know recorded melting point for O=C(c1ccc2nonc2c1)N1CC2CC1CO2 (centres unmarked) [Example 10] , thanks.
Key: 102 to 104 °C

====

Catalogue of melting point readings, one per entry.

Answered cases to consult:
>>> reported_measurement("O=C(c1ccc2nonc2c1)N1CC2C=CC1C2 (stereo not drawn) [Example 11]")
"106 to 108 °C"
>>> reported_measurement("O=C(c1ccc2nonc2c1)N1C2CCCC1CC2 [Example 1]")
"128 to 130 °C"
>>> reported_measurement("O=C(c1ccc2nonc2c1)N1CC2CC1C(Cl)C2Cl (stereo not drawn) [Example 14]")
"156 to 157 °C"
>>> reported_measurement("O=C(c1ccc2nonc2c1)N1C2CCC1CC(O)C2 (stereo not drawn) [5]")
"169 to 171 °C"
>>> reported_measurement("O=C(c1ccc2nonc2c1)N1C2CCC1CC2")
"143 to 144 °C"

Shift focus to the following entry.
Exercise: Let me know recorded melting point for O=C(c1ccc2nonc2c1)N1C2CCC1CC(O)C2 (stereo not drawn) [6] , thanks.
Key: 176 to 177 °C
